biological target: T1, human apical domain of CD71 (human, UniProt P02786 189-383, limits assumed); experiment: primary ELISA; further: test concentration or dose not given here
T1 construct: domain: apical domain
T1 sequence (P02786 189-383 limits assumed): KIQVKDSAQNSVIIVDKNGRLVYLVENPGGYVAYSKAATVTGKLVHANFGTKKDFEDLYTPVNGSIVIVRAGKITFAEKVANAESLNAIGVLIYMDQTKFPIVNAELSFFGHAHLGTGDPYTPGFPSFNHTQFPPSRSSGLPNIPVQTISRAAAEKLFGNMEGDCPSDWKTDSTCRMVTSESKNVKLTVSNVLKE
Measurement name: RLU (RLU)

binder="CD71-binding FN3 domain SEQ ID NO 354 (designed binder) MLPAPKNLVVSRVTEDSARLSWTAPDAAFDSFFIGYLEPQPPGEAIQLWVPGSERSYDLTGLKPGTEYNVTIQGVKGGFPSLPLVATFTT" measurement_name=RLU units_symbol=RLU measured=5.25e+06
binder="CD71-binding FN3 domain SEQ ID NO 417 (designed binder) MLPAPKNLVVSRVTEDSARLSWTAPDAAFDSFFIGYLEPQPPGEAIQLFVPGSERSYDLTGLKPGTEYNVTIQGVKGGFPSDPLVASFTT" measurement_name=RLU units_symbol=RLU measured=6.17e+06
binder="CD71-binding FN3 domain SEQ ID NO 444 (designed binder) MLPAPKNLVVSRVTEDSARLSWTAPDAAFDSFEIDYVEFIFTGEAIGLIVPGSERSYDLTGLKPGTKYWVTIAGVKGGEWSTPLQAFFTT" measurement_name=RLU units_symbol=RLU measured=5.12e+06
